# SYSTEM TESTED: Phosphatidylinositol 4,5-bisphosphate 3-kinase catalytic subunit delta isoform (Homo sapiens)
# Sequence (O00329 whole entry, canonical isoform): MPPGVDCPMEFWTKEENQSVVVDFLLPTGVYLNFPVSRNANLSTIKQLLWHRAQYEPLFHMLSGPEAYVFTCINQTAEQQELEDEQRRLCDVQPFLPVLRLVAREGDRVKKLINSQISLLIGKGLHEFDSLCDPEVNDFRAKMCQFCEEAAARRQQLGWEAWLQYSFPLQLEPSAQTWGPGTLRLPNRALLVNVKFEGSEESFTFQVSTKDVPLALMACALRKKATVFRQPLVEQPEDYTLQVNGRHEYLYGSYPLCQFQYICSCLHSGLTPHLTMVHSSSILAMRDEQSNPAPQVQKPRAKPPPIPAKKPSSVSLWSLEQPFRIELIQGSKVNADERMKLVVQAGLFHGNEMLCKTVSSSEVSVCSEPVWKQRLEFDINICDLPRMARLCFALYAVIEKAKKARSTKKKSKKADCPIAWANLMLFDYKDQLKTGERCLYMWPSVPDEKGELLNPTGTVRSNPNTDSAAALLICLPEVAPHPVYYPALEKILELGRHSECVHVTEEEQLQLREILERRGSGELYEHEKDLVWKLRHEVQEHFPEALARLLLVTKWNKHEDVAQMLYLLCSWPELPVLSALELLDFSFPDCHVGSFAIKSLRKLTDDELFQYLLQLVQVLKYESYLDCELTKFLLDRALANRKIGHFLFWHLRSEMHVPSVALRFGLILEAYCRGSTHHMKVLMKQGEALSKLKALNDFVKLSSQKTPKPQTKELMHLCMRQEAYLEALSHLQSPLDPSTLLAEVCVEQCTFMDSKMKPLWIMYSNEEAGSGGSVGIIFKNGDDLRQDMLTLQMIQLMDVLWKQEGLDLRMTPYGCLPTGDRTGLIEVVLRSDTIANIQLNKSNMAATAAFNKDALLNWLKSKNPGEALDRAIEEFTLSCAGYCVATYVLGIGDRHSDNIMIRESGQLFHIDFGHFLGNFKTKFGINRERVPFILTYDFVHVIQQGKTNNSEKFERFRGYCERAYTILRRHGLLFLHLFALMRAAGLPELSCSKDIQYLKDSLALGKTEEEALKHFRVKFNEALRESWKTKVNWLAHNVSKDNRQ
# ASSAY: Inhibition of PI3Kdelta (unknown origin) using diC8-PI(4,5)P2 as substrate incubated for 3 hrs in presence of ATP by fluorescence polarization assay
pIC50: −log10 of the molar value.
MEASURE: pIC50

Use the examples below as a reference point.
CHEMICAL SMILES | MEASURE | MEASUREMENT
CC(C)c1cc(C(C)C)c(S(=O)(=O)N2CCN(Cn3cc4c(=O)oc5ccccc5c4n3)CC2)c(C(C)C)c1 | pIC50 | 6.38
Cc1ccc(C)c(S(=O)(=O)N2CCN(Cn3cc4c(=O)oc5ccccc5c4n3)CC2)c1 | pIC50 | 5.85
O=c1oc2ccccc2c2nn(CN3CCN(S(=O)(=O)c4ccccc4[N+](=O)[O-])CC3)cc12 | pIC50 | 5.21
CC(C)(C)c1ccc(S(=O)(=O)N2CCN(Cn3cc4c(=O)oc5ccccc5c4n3)CC2)cc1 | pIC50 | 6.12
O=c1oc2ccccc2c2nn(CN3CCN(S(=O)(=O)c4ccc(F)cc4)CC3)cc12 | pIC50 | 5.01

[I] Cc1cc(C)c(S(=O)(=O)N2CCN(Cn3cc4c(=O)oc5ccccc5c4n3)CC2)c(C)c1
[II] O=c1oc2ccccc2c2nn(CN3CCN(S(=O)(=O)c4ccc(C(F)(F)F)cc4)CC3)cc12
Task: Endpoint returns the identifier whose pIC50 is numerically larger, either I or II . # answer = label of selected item
Output: I
(I: 6.64, II: 5.12)

* * *

# SYSTEM TESTED: Phosphatidylinositol 4,5-bisphosphate 3-kinase catalytic subunit alpha isoform (Homo sapiens, UniProt P42336)
# Sequence (P42336 whole entry, canonical isoform): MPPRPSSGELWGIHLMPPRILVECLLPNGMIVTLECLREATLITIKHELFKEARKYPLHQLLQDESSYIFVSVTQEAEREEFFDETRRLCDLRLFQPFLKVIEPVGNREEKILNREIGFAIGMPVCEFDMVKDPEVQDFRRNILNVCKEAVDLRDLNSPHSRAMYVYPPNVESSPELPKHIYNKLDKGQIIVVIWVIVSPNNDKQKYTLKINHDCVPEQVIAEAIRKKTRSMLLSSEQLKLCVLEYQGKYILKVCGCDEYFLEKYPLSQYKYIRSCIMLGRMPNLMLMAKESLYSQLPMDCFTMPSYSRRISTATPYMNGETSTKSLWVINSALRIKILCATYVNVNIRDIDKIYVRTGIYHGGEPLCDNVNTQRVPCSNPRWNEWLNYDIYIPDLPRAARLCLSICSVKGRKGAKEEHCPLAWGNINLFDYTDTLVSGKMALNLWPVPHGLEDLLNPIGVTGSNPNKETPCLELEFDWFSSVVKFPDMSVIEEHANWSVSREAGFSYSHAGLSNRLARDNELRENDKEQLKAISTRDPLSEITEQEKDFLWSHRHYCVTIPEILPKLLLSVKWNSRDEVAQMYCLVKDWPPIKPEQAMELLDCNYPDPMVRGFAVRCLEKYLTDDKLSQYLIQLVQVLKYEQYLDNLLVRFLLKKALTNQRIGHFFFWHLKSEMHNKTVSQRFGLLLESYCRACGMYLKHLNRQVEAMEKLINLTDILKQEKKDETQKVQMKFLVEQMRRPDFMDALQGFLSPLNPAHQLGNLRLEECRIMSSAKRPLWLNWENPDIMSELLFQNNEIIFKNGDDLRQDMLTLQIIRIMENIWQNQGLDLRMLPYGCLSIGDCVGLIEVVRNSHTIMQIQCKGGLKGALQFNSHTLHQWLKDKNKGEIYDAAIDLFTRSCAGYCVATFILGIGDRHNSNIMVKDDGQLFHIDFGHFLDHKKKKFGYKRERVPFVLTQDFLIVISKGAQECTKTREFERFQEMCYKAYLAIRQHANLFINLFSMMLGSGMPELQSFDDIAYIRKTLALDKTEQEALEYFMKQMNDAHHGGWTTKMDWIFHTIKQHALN
# ASSAY: Inhibition of PI3Kalpha (unknown origin) using diC8-PI(4,5)P2 as substrate incubated for 3 hrs in presence of ATP by fluorescence polarization assay
pIC50: −log10 of the molar value.
MEASURE: pIC50

CHEMICAL SMILES | MEASUREMENT
Cc1ccc(C)c(S(=O)(=O)N2CCN(Cn3cc4c(=O)oc5ccccc5c4n3)CC2)c1 | 6.52
O=c1oc2ccccc2c2nn(CN3CCN(S(=O)(=O)c4ccc(F)cc4)CC3)cc12 | 5.05
O=c1oc2ccccc2c2nn(CN3CCN(S(=O)(=O)c4ccc(Br)cc4)CC3)cc12 | 5.08

[P] O=c1oc2ccccc2c2nn(CN3CCN(S(=O)(=O)c4ccc(Cl)cc4)CC3)cc12
[Q] O=c1oc2ccccc2c2nn(CN3CCN(S(=O)(=O)c4cccc([N+](=O)[O-])c4)CC3)cc12
Task: Endpoint returns the identifier whose pIC50 is numerically larger, either P or Q . # answer = label of selected item
Output: P

[A] Cc1cc(C)c(S(=O)(=O)N2CCN(Cn3cc4c(=O)oc5ccccc5c4n3)CC2)c(C)c1
[B] CC(C)(C)c1ccc(S(=O)(=O)N2CCN(Cn3cc4c(=O)oc5ccccc5c4n3)CC2)cc1
Task: Lab note: check whether A or B has the lower measured pIC50. # answer = label of selected item
Output: B

[a] O=c1oc2ccccc2c2nn(CN3CCN(S(=O)(=O)c4ccc([N+](=O)[O-])cc4)CC3)cc12
[b] CC(C)c1cc(C(C)C)c(S(=O)(=O)N2CCN(Cn3cc4c(=O)oc5ccccc5c4n3)CC2)c(C(C)C)c1
[c] O=c1oc2ccccc2c2nn(CN3CCN(S(=O)(=O)c4ccc(Cl)c([N+](=O)[O-])c4)CC3)cc12
Task: Given 3 molecules, produce a descending ranking by pIC50. The labels, placed in the requested order, form the answer.
Output: c, b, a

Data origin: ChEMBL document CHEMBL4359902
